Test system: RIOK3
MEASUREMENT CONTEXT: concentration: 1 μM, replicates: in singlicate; n = 1;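 also: KINOMEscan kinase panel screen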
MEASURED ENDPOINT: %Inh (%)
// units = %; emit number, no label

>  <MOL>
COc1ccc(-n2cnc3c(N)ncnc32)cc1

>  <%Inh / %>
0

$$$$

Q: Provide %Inh value for the following compound: "OCCCNc1nccc(-c2c(-c3cccc(C(F)(F)F)c3)nn3cc(C(F)(F)F)ccc23)n1"
A: 14

Q: Provide %Inh value for the following compound: "CN(C)c1cc(-c2ccc3c(N)n[nH]c3c2)nc(N)n1"
A: 38

###

Tested on: EPHA8
MEASUREMENT CONTEXT: concentration: 1 μM, replicates: in singlicate; n = 1
Recorded %Inh values for a group of compounds are listed next.

Past entries and their recorded results:
>  <COMPOUND>
Cc1nnc(-c2ccc(C)c(-c3ccc(C(=O)O)cc3)c2)o1 [GW608005]

>  <SYSTEM TESTED>
EPHA8

>  <MEASURED ENDPOINT>
%Inh

>  <OBSERVED MEASUREMENT>
0%

$$$$
>  <COMPOUND>
Cc1ccc(Oc2ccc(Nc3ncnc4cc[nH]c34)cc2C)cn1

>  <SYSTEM TESTED>
EPHA8

>  <MEASURED ENDPOINT>
%Inh

>  <OBSERVED MEASUREMENT>
0%

$$$$
>  <COMPOUND>
COc1cc2ncn(-c3cc(OCc4ccc(S(C)(=O)=O)cc4)c(C(N)=O)s3)c2cc1OC [GW869979]

>  <SYSTEM TESTED>
EPHA8

>  <MEASURED ENDPOINT>
%Inh

>  <OBSERVED MEASUREMENT>
17%

$$$$
>  <COMPOUND>
COc1ccc(-c2coc3ccc(-c4nnc(SCc5cccc(C#N)c5)o4)cc23)cc1

>  <SYSTEM TESTED>
EPHA8

>  <MEASURED ENDPOINT>
%Inh

>  <OBSERVED MEASUREMENT>
0%

$$$$
>  <COMPOUND>
CC(C)(C)c1ccc(C(=O)Nc2cn3cc(-c4ccccc4)ccc3n2)cc1

>  <SYSTEM TESTED>
EPHA8

>  <MEASURED ENDPOINT>
%Inh

>  <OBSERVED MEASUREMENT>
0%

$$$$
>  <COMPOUND>
COc1ccc(Nc2nccc(N3CCC(NS(=O)(=O)c4ccc(NC(C)=O)cc4)C3)n2)cc1 (stereo not drawn) [GSK1379729]

>  <SYSTEM TESTED>
EPHA8

>  <MEASURED ENDPOINT>
%Inh

>  <OBSERVED MEASUREMENT>
7%

$$$$

Q: Provide %Inh value for the following compound: "CCC(=O)c1c(-c2ccccc2)c2cc(Cl)ccc2c(=O)n1Cc1cc(S(C)(=O)=O)n(CC(F)F)n1"
A: 0%

Q: Provide %Inh value for the following compound: CN1C(=O)C(Nc2cc(Cl)c(O)c(Cl)c2)=C(c2ccc(Cl)cc2)C1=O [SB-404321]
A: 0%

Q: Provide %Inh value for the following compound: Nc1n[nH]c2nnc(-c3ccccc3)c(-c3ccccc3)c12 [GW554060]
A: 10%
